B1: Myocardin-related transcription factor A, residues 341 to 383; numbered along this chain, Q969V6 (parent)
chain: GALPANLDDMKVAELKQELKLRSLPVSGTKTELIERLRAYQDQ

Variants of: B1
method: abundance fitness (aPCA) (normalised: wild type 0, dead -1); higher = more abundant; growth selection in yeast, the domain comes from the species named
run.conditions: Homo sapiens
metric: abundance fitness
Enter the number alone.

Data request, read-out abundance fitness, for GALPANLDDMKVAELKQELKLRSLPVSGTKTELIERLLAYQDQ [R38L] -0.224

Data request, read-out abundance fitness, for GALPANLDDMKVAELKQELKLRSLPVSGTKTELKERLRAYQDQ [I34K] -0.031

Data request, read-out abundance fitness, for GALPANLDDMKVAELKQELKFRSLPVSGTKTELIERLRAYQDQ [L21F] -0.177

Data request, read-out abundance fitness, for GALPANLDDMKVAELKQELKLRSGPVSGTKTELIERLRAYQDQ [L24G] -0.471

Data request, read-out abundance fitness, for GALPANLDDMKVAELKQELKHRSLPVSGTKTELIERLRAYQDQ [L21H] 0.003

Data request, read-out abundance fitness, for GALPANLDDMKVAELKQELKLRSLPVSGTKTELIERLRAYQQQ [D42Q] -0.087

Data request, read-out abundance fitness, for GALPANLDDMKVAELKQELKLRSLPVSGTKTELIERLRAWQDQ [Y40W] 0.178

Data request, read-out abundance fitness, for GALPANLDDMKVAELKQELKLRSLPVSLTKTELIERLRAYQDQ [G28L] -1.06

Data request, read-out abundance fitness, for GALPANLDDMKVAELKQELKLRSLPVSGTKTELIEQLRAYQDQ [R36Q] -0.201

Data request, read-out abundance fitness, for GALPANLDDMKVAELKQELKLRSLPVSGTKTELIERLRAAQDQ [Y40A] 0.247

Data request, read-out abundance fitness, for GALPANLDDMKVAELKQELKLRSLPVSGTKTPLIERLRAYQDQ [E32P] -0.533

Data request, read-out abundance fitness, for GALPANLDDMKVAELKQELKLRSLPVSGTKTELIERTRAYQDQ [L37T] -0.416

Data request, read-out abundance fitness, for GALPANLDDMKVAELKQELKLRSLPVSGTKTELIERLEAYQDQ [R38E] 0.074

Data request, read-out abundance fitness, for GALPANLDDMKVAELKQELKLRSLPVSGTRTELIERLRAYQDQ [K30R] 0.024

Data request, read-out abundance fitness, for GALPANLDDMKVAELKQELKLRSLPVSGTKTLLIERLRAYQDQ [E32L] -0.472

Data request, read-out abundance fitness, for GALPANLDDMKVAELKQELKLRSLPVSGTKTELIERLRPYQDQ [A39P] 0.168

Data request, read-out abundance fitness, for GALPANLDDMKVAELKQELKLRSLPVSGTKTELIERLRASQDQ [Y40S] 0.246

Data request, read-out abundance fitness, for GALPANLDDMKVAELKQELKLRSLPVSGTHTELIERLRAYQDQ [K30H] -0.217

Data request, read-out abundance fitness, for GALPANLDDMKVAELKQELKLRSLPVSGTKTELIERLRAYWDQ [Q41W] 0.083

Data request, read-out abundance fitness, for GALPANLDDMKVAELKQELKLRSLPVSGTKTELIERLRAYQDV [Q43V] 0.334

Data request, read-out abundance fitness, for GALPANLDDMKVAELKQELKLRSLHVSGTKTELIERLRAYQDQ [P25H] -0.875

Data request, read-out abundance fitness, for GALPANLDDMKVAELKQELKLRSLPVSGTKTELIERNRAYQDQ [L37N] -0.327

Data request, read-out abundance fitness, for GALPANLDDMKVAELKQELKLRLLPVSGTKTELIERLRAYQDQ [S23L] -0.018

Data request, read-out abundance fitness, for GALPANLDDMKVAELKQELKLDSLPVSGTKTELIERLRAYQDQ [R22D] -0.327

Data request, read-out abundance fitness, for GALPANLDDMKVAELKQELKLMSLPVSGTKTELIERLRAYQDQ [R22M] -0.229

Data request, read-out abundance fitness, for GALPANLDDMKVAELKQELKLRSLPVSGTGTELIERLRAYQDQ [K30G] -0.494

Data request, read-out abundance fitness, for GALPANLDDMKVAELKQELKLRSLPVSGTKTELIERLRADQDQ [Y40D] 0.308

Data request, read-out abundance fitness, for GALPANLDDMKVAELKQELKLRSLPVSGTKTELIERLRNYQDQ [A39N] 0.259

Data request, read-out abundance fitness, for GALPANLDDMKVAELKQELKLRSLPVSGTTTELIERLRAYQDQ [K30T] -0.091

Data request, read-out abundance fitness, for GALPANLDDMKVAELKQELKLRSLPVSGTKTEAIERLRAYQDQ [L33A] -0.261

Data request, read-out abundance fitness, for GALPANLDDMKVAELKQELKLRSLPGSGTKTELIERLRAYQDQ [V26G] -0.038

Data request, read-out abundance fitness, for GALPANLDDMKVAELKQELKLRSLPVSGTKTELIERLYAYQDQ [R38Y] -0.053

Data request, read-out abundance fitness, for GALPANLDDMKVAELKQELSLRSLPVSGTKTELIERLRAYQDQ [K20S] 0.05

Data request, read-out abundance fitness, for GALPANLDDMKVAELKQELKLRSLPVSGTKTELILRLRAYQDQ [E35L] 0.026

Data request, read-out abundance fitness, for GALPANLDDMKVAELKQELKCRSLPVSGTKTELIERLRAYQDQ [L21C] -0.229

Data request, read-out abundance fitness, for GALPANLDDMKVAELKQELKLRSLPVSGTKTELIVRLRAYQDQ [E35V] -0.171
